Data provenance: the supplement of paper PMC9732359

Entries and their protein stability index
# test.method.notes: protein stability index of a GFP-peptide fusion (yeast GPS) (PSI 1-4); higher = more stable; sorted into four equal gates, so the index is relative within each strain
# condition.details: doa10∆

- sequence.content: "NGEIKGENIDADNDGPR [SNF2]"
  protein stability index: 3.07
- sequence.content: "MAKDNLTNLLSQLNIQL [SRP72]"
  protein stability index: 2.99
- sequence.content: "KSAVSHAPAYHRSKKDQ [IRR1]"
  protein stability index: 3.13
- sequence.content: "NARIYNTEGSVVYEDSL [SNF2]"
  protein stability index: 3.1
- sequence.content: "EKPFNENRFQDTLLLLP [POP4]"
  protein stability index: 1.52
- sequence.content: "LFSEKTIRYLMQKQHEM [SNF6]"
  protein stability index: 2.63
- sequence.content: "SSFEKFNDSQAIVCYIL [SRP72]"
  protein stability index: 2.43
